Data provenance: patent US11236086B2

Target or system: ALK2R206H (mutant ALK2, N-terminally tagged with GST) (Homo sapiens, UniProt Q04771, R206H)
Construct: purchased Carna Bioscience or ThermoFisher 09-148 or PV6232
Sequence (Q04771 21-509 R206H): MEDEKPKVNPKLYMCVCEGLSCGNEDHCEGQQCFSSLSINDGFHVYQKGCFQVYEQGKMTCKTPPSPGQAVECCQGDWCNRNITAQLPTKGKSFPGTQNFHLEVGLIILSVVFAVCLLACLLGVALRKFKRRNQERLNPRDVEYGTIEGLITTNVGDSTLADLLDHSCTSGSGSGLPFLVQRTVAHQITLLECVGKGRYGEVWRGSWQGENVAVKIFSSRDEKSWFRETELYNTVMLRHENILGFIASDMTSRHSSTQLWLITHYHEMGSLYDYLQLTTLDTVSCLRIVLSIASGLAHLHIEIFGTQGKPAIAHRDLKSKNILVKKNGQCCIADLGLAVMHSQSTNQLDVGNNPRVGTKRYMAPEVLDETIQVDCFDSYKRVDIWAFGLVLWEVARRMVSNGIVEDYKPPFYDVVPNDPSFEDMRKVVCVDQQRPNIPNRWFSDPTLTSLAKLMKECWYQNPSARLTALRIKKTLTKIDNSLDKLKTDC
Assay: ALK binding assay (LANTHASCREEN TR-FRET competitive binding, displacement of Kinase Tracer 178)
Condition: read-out: Binding Assay (IC50 class)
pIC50: −log10 of the molar value.
Quantity name: pIC50

What the record says about `COc1ccc(-c2cc3c(N4CCN(C(=O)C5CC5)CC4)ccnc3[nH]2)cn1` : pIC50 is 7.30 to 8.00

Looking up `O=C(C1CC1)N1CCN(c2ccnc3[nH]c(-c4ncco4)cc23)CC1` , I found its pIC50 recorded as 7.30 to 8.00

# compound `CCOC(=O)N1CCN(c2ccnc3[nH]c(-c4nc(C)c(C)s4)cc23)CC1` ; its pIC50 = ≥ 8.00

The recorded pIC50 for `Cn1cc(-c2cc3c(N4CCN(C(=O)O[C@@H]5CCC5(F)F)CC4)ccnc3[nH]2)cn1` is ≥ 8.00

Query `CCOC(=O)N1CCN(c2ccnc3[nH]c(-c4nc(C)cs4)cc23)CC1` yields pIC50 of ≥ 8.00

Alright, here's another compound for you.
# pIC50 of `CC(C)OCCOC(=O)N1CCN(c2ccnc3[nH]c(-c4cnn(C)c4)cc23)CC1` = ≥ 8.00
